- Tested on: Erwinia amylovora
- Method notes: Antibacterial activity against Erwinia amylovora PMV6076 after 48 hr by broth dilution method
- Assay type: functional
- Measurement conditions: PMV6076, 48 h
*1 amine or outer side, *2 acyl side, *3 side chain or, on linkers, in order; H or OH if unused. Where a SMILES comes first, the peptide text is derived from it. [ ]: non-standard residue; d: D form. X1 = O=C([C@H](Cc1c[nH]c2ccccc12)N(Cc1ccccc1)[*:1])[*:2]
Assay readout: MIC (µM)
Form entry: value (µM) — number only.

Find the recorded MIC belonging to CC[C@H](C)[C@H](NC(=O)[C@H](CCCCN)NC(=O)[C@H](CCCCN)NC(=O)[C@H](Cc1ccccc1)NC(=O)[C@H](CC(C)C)NC(=O)[C@H](CCCCN)NC(=O)[C@H](Cc1c[nH]c2ccccc12)NCc1ccccc1)C(=O)N[C@@H](CC(C)C)C(=O)N[C@@H](CCCCN)C(=O)N[C@H](C(=O)N[C@@H](CC(C)C)C(N)=O)C(C)C (H-[X1]KLFKKILKVL-NH2) and report it.
7

###

For each entry below, report its pEC50 value.
- Tested on: Xanthomonas vesicatoria
- Method notes: Antibacterial activity against Xanthomonas vesicatoria 2133-2 assessed as growth inhibition after 48 hr
- Type: functional
- Measurement conditions: 2133-2, 48 h, read-out: ED50 (the source's name)
Where a SMILES comes first, the peptide text is derived from it. The star is where a group is joined. Palmitoyl = CCCCCCCCCCCCCCCC(=O)*
pEC50 here is simply -log10 of the concentration when that concentration is written in mol/L.

Find the recorded pEC50 belonging to CC[C@H](C)[C@H](NC(=O)[C@H](CCCCN)NC(=O)[C@H](CCCCN)NC(=O)[C@H](Cc1ccccc1)NC(=O)[C@H](CC(C)C)NC(=O)[C@H](CCCCN)NC(=O)[C@@H](N)Cc1c[nH]c2ccccc12)C(=O)N[C@@H](CC(C)C)C(=O)N[C@@H](CCCCN)C(=O)N[C@@H](Cc1ccc(O)cc1)C(=O)N[C@@H](CC(C)C)C(N)=O and report it.
5.64

Find the recorded pEC50 belonging to CCCCCCCCCCCCCCCC(=O)N[C@@H](Cc1c[nH]c2ccccc12)C(=O)N[C@@H](CCCCN)C(=O)N[C@@H](CC(C)C)C(=O)N[C@@H](Cc1ccccc1)C(=O)N[C@@H](CCCCN)C(=O)N[C@@H](CCCCN)C(=O)N[C@H](C(=O)N[C@@H](CC(C)C)C(=O)N[C@@H](CCCCN)C(=O)N[C@H](C(=O)N[C@@H](CC(C)C)C(N)=O)C(C)C)[C@@H](C)CC (Palmitoyl-WKLFKKILKVL-NH2) and report it.
4.83

Find the recorded pEC50 belonging to CC[C@H](C)[C@H](NC(=O)[C@H](CCCCN)NC(=O)[C@H](CCCCN)NC(=O)[C@H](Cc1ccccc1)NC(=O)[C@H](CC(C)C)NC(=O)[C@H](CCCCN)NC(=O)[C@@H](N)CCCCN)C(=O)N[C@@H](CC(C)C)C(=O)N[C@@H](CCCCN)C(=O)N[C@@H](Cc1ccccc1)C(=O)N[C@@H](CC(C)C)C(N)=O and report it.
5.72

###

- Test system: Xanthomonas vesicatoria
- Method notes: Antibacterial activity against Xanthomonas vesicatoria 2133-2 assessed as growth inhibition after 48 hr
- Assay type: functional
- Measurement conditions: 2133-2, 48 h, read-out: ED50 (the source's name)
*1 amine or outer side, *2 acyl side, *3 side chain or, on linkers, in order; H or OH if unused. Where a SMILES comes first, the peptide text is derived from it. [ ]: non-standard residue; d: D form. X1 = O=C([C@H](Cc1c[nH]c2ccccc12)N(Cc1ccccc1)[*:1])[*:2]
For each entry below, report its EC50 value.
Form entry: value (µM) — number only.

Find the recorded EC50 belonging to CC[C@H](C)[C@H](NC(=O)[C@H](CCCCN)NC(=O)[C@H](CCCCN)NC(=O)[C@H](Cc1ccccc1)NC(=O)[C@H](CC(C)C)NC(=O)[C@H](CCCCN)NC(=O)[C@H](Cc1c[nH]c2ccccc12)NCc1ccccc1)C(=O)N[C@@H](CC(C)C)C(=O)N[C@@H](CCCCN)C(=O)N[C@H](C(=O)N[C@@H](CC(C)C)C(N)=O)C(C)C (H-[X1]KLFKKILKVL-NH2) and report it.
2.5

Find the recorded EC50 belonging to CC[C@H](C)[C@H](NC(=O)[C@H](CCCCN)NC(=O)[C@H](CCCCN)NC(=O)[C@H](Cc1ccccc1)NC(=O)[C@H](CC(C)C)NC(=O)[C@H](CCCCN)NC(=O)[C@@H](N)CCCCN)C(=O)N[C@@H](CC(C)C)C(=O)N[C@@H](CCCCN)C(=O)N[C@H](C(=O)N[C@@H](CC(C)C)C(N)=O)C(C)C and report it.
7.3
